Test: Example 2: complexing agents with hydrogen peroxide to oxidize and dissolve gallium arsenide (Table 3)
Conditions: observation during about 10 min stirring with heating to 85° C., H2O2

# Compound, Initial Result
data = [
    ("O=P([O-])(O)O.[Na+] [Monobasic sodium phosphate (NaH2 PO4), Monobasic sodium phosphate]", "No reaction"),
    ("O.O=P([O-])(O)O.[Na+]", "No reaction"),
    ("CCCCCCCCCCCC(=O)NO [dodecanohydroxamic acid]", "No reaction"),
]

* * *

Experiment: Aqueous solubilities of N-alkylalkano and N-H hydroxamic acids (Table 1)
Assay type: physicochemical
Entries and their Solubility (25° C.), molarity values follow.

Examples with answers:
# Molecule, Value Observed
records = [
    ("CCCCCCCCCC(CCCCCCCCC)N(O)C(=O)C1CCCCC1", "1.7 × 10^-6 molarity"),
    ("CCCCCCCCCC(=O)N(O)C(C)C [N--isopropyldecanohydroxamic acid]", "1.68 × 10^-5 molarity"),
    ("CCCCCCCCCCCCCCCC(=O)N(C)O [N--methylhexadecanohydroxamic acid]", "4.60 × 10^-6 molarity"),
    ("CCCCCCCCCC(=O)N(O)CCCCCC [N--hexyldecanohydroxamic acid]", "5.71 × 10^-6 molarity"),
]

Specify measured Solubility (25° C.), molarity for CCCCCCCCC(=O)N(C)O [N-methylnonanohydroxamic acid] .
2.18 × 10^-3 molarity
